system: Mec-1 cells; assay: Cell growth curves over 12 days, Mec-1; type: cell-based; settings: Mec-1, 100 nM, day 10
# if measured Rep 2 Live Cells [Fold Change] < 6 Fold Change: Y  # else: N

| compound | category.label |
| --- | --- |
| O=C(NC[C@H](O)CN1CCc2ccccc2C1)c1cc(NC2COC2)ncn1 [EPZ015666] | N |
| Nc1nc2cc(CC[C@H]3C[C@@H](n4ccc5c(N)ncnc54)[C@H](O)[C@@H]3O)ccc2cc1Br [JNJ-64619178] | Y |
| Nc1ncnc2c1ccn2[C@@H]1O[C@H]([C@H](O)c2ccccc2)[C@@H](O)[C@H]1O [LLY-283] | Y |
| CON=c1nc[nH]c2c1ccn2[C@@H]1O[C@H]([C@H](O)c2ccc(Cl)c(Cl)c2)[C@@H](O)[C@H]1O.Cl [PRT382] | N |
